- tgt: T1, 4H918-bH
- T1 chain: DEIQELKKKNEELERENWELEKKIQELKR
- method description: two-hybrid library CCNG1;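 further: natural log of median RNA to DNA barcode read ratio; higher means stronger binding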
reported metric: interaction score

{"binder": "DKIQELKKENEELEREIWELKKKIQELKR [4H2702-bH]", "interaction score": -0.77}

I: DEIQELKKEIEELERKNWELKKKNQELER [4H575-bH]
II: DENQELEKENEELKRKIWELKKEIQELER [4H1257-bH]
III: DEIQELKKEIEELERKNWELEKKNQELKR [4H568-bH]
Ascending sort, interaction score. Arrange the labels as the request states and list them.
III, I, II
(III: -0.673, I: -0.438, II: 0.00985)
